Tested System: Caspase recruitment domain-containing protein 9 (Homo sapiens) + E3 ubiquitin-protein ligase TRIM62 (Homo sapiens) (UniProt Q9H257+Q9BVG3)
Sequence (Q9BVG3 whole entry, looked up, the tested form may be a part): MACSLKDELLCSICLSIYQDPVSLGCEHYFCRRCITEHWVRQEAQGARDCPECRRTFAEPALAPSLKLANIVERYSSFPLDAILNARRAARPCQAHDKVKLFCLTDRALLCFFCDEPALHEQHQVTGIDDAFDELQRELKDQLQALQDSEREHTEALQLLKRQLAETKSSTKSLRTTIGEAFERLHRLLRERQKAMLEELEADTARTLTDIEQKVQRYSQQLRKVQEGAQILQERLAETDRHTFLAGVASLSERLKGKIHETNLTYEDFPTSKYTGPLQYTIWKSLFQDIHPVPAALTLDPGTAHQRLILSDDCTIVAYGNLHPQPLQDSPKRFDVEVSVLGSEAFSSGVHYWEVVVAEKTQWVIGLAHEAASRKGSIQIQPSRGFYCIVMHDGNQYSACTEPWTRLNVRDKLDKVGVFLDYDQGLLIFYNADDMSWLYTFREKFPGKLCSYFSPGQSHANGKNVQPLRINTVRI
Sequence (Q9H257 whole entry, looked up, the tested form may be a part): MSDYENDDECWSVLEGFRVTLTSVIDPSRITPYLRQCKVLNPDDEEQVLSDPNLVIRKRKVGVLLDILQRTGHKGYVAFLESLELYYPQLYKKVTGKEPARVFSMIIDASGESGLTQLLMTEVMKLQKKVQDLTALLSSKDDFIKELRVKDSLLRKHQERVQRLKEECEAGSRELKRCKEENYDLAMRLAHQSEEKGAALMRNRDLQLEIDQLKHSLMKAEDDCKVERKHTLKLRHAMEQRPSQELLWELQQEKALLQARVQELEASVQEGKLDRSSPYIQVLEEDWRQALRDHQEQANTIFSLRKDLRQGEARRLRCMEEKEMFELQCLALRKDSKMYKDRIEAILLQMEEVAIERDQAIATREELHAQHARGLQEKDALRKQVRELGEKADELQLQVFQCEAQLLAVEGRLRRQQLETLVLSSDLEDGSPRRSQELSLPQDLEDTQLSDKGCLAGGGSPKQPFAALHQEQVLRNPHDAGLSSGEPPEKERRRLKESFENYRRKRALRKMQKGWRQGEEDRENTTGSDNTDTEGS
Procedure Summary: disruptors of CARD9-TRIM62 binding, primary screen, cell lysate, HEK293FT lysates, Luminex bead ELISA (AID 1259341);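 also: PE anti-Flag signal of Flag-CARD9 captured by myc-TRIM62 beads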
Experimental Conditions: PE fluorescence, hits give low values, concentration not given here
Property: activity change, negative = inhibition (%)

> print(dat)
                                    compound  recorded.measurement
 1     O=C(Nc1nccs1)c1cc(-c2ccco2)nc2ccccc12                -0.894
 2  C[C@H](CO)N1C[C@H](C)[C@@H](CN(C)C(=O)C2CCCCC2)OCCCC[C@H](C)Oc2ccc(NS(=O)(=O)c3cn(C)cn3)cc2C1=O                 -7.17
 3       O=S(=O)(Nc1nccs1)c1ccc(-n2cccc2)cc1                   3.9
 4  CC1=CCC(C(=O)O)C(C(=O)NC2CCCCC2)C1 (stereo not given)                 -6.81
 5  C[C@H](CO)N1C[C@H](C)[C@@H](CN(C)C(=O)C2CCCCC2)OCCCC[C@H](C)Oc2ccc(NS(=O)(=O)c3cccs3)cc2C1=O                  6.34
 6  CCOC(=O)c1[nH]c(Cc2[nH]c(C(=O)OCC)c(C)c2C)c(C)c1C               -0.0423
 7  O=C(CN1CCOC1=O)N1CCC2(CCC(=O)N(CCCn3ccnc3)C2)CC1                 -6.82
 8  O=C(Nc1ccc2oc(-c3cccnc3)nc2c1)c1ccc2c(c1)OCCO2                  4.18
 9        c1ccc(-c2nc(-c3ccco3)n3ccccc23)cc1                 -5.09
10  Cc1ccc(-c2nnc(-c3nc(Nc4nc5ccccc5s4)c4ccccc4n3)o2)cc1                 -10.3

* * *

Tested System: Caspase recruitment domain-containing protein 9 (Homo sapiens) + E3 ubiquitin-protein ligase TRIM62 (Homo sapiens) (UniProt Q9H257+Q9BVG3)
Procedure Summary: disruptors of CARD9-TRIM62 binding, primary screen, cell lysate, HEK293FT lysates, Luminex bead ELISA (AID 1259341);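 also: PE anti-Flag signal of Flag-CARD9 captured by myc-TRIM62 beads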
Experimental Conditions: PE fluorescence, hits give low values, concentration not given here
Property: activity change, negative = inhibition (%)

> print(dat)
                                    compound  reading.unit  recorded.measurement
 1  COc1ccc(CNC(=O)c2nc(Nc3ccc(C)cc3)c3ccccc3n2)cc1             %                  -5.2
 2  O=C(NCC1CCCO1)c1cc(-c2ccco2)nc2ccccc12 (stereo not drawn)             %                 -3.93
 3  COc1cc(N)c(Cc2nccc3cc(OC)c(OC)cc23)cc1OC             %                  1.93
 4  O=C(O)c1cc(-c2ccc(-c3ccc(F)cc3)o2)nc2ccccc12             %                 -7.53
 5        COCC(=O)n1nc(-c2ccco2)nc1NCc1cccs1             %                 -2.31
 6  O=C1NC(c2ccc(Br)cc2)Nc2sc3c(c21)CCC3 (stereo not drawn)             %                 -3.86
 7  Cc1nn2c(c1-c1ccccc1)NC(c1ccco1)=CC2c1ccco1 (stereo not drawn)             %                  21.4
 8                  Cc1cc(C(=O)NCc2ccco2)on1             %                    -1
 9  C[C@H](CO)N1C[C@H](C)[C@@H](CN(C)CC2CCCCC2)OCCCC[C@H](C)Oc2ccc(NS(=O)(=O)c3cn(C)cn3)cc2C1=O             %                  9.05
10               Clc1ccc2nc(CN3CCCCCC3)cn2c1             %                  5.28
11  O=C(Nc1ncccc1O)c1ccc(OCC2CCCO2)cc1 (stereo not drawn)             %                  2.58
12      CCNc1ncc(C(=O)NCCc2nc3c(s2)CCCC3)cn1             %                 -3.32
13      Cc1ccc(N2NC(c3ccc(Br)cc3)=CCC2=O)cc1             %                 -5.75
14              O=C1C=C(c2ccccc2)Nc2ccccc2N1             %                  2.64
15  Cc1ccc(Nc2nc(C(=O)Nc3ccc(Cl)cc3)nc3ccccc23)cc1             %                 -19.6
16  C[C@H](CO)N1C[C@H](C)[C@@H](CN(C)C(=O)C2CCCCC2)OCCCC[C@H](C)Oc2ccc(NS(C)(=O)=O)cc2C1=O             %                  9.86
17       O=C(COC(=O)CCC(=O)c1cccs1)NCc1ccco1             %                 0.961
18  CS(=O)(=O)N1CCN(c2ccc([N+](=O)[O-])c(SCc3ccco3)c2)CC1             %                 -5.97
